- Assay info: AUC (all) in Sprague-Dawley rat at 2 mg/kg, po
- Format: ADME, organism-based
- Design: dose 2 mg/kg, route oral
- Condition info: plasma
Endpoint label: AUC (ng·h/mL)
Express it in ng·h/mL; write the number only.

For the molecule shown here, Cl.c1ccc(OC(c2ccc3ccccc3c2)C2CNC2)cc1 (configuration not stated) , give the reported AUC.
17.9

Another molecule to check: CCCOC(c1ccc2ccccc2c1)C1CNC1.Cl (configuration not stated)
23.9

----------
- Assay info: AUC (all) in Sprague-Dawley rat at 1 mg/kg, iv
- Format: ADME, organism-based
- Parameters: dose 1 mg/kg, route intravenous
- Condition info: plasma
Endpoint label: AUC (ng·h/mL)
Lab book: enter the figure in ng·h/mL, no units written.

Can you share its AUC? I mean this molecule: Cl.c1ccc(OC(c2ccc3ccccc3c2)C2CNC2)cc1 (configuration not stated)
153

What about CCCOC(c1ccc2ccccc2c1)C1CNC1.Cl (configuration not stated) ?
211
